test system: biotinyl-Ile-oxazolone; experiment: self-aminoacylation, catalytic enhancement (BIO) (fold over background); higher = more active; k-Seq, kA / k0A0; sequences stand for … in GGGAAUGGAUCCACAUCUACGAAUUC…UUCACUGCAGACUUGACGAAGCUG
Variants at the floor of the assay were thinned out.
quantity.name: self-aminoacylation

ordered_residues="AUUACCCUGGUCAUUGAGUGC [Fam2.1 aminoacylation ribozyme variant]" quantitative_readout=0.962
ordered_residues="CUAAUUCAAACAAUCGGUCCG [Fam1A.1 aminoacylation ribozyme variant]" quantitative_readout=0.553
ordered_residues="CUACUUGAAACAAUCGGUCCG [Fam1A.1 aminoacylation ribozyme variant]" quantitative_readout=0.929
ordered_residues="AACUUUACUAAUAGUCGCAAG [Fam3.1 aminoacylation ribozyme variant]" quantitative_readout=2.07
